assayRemarks: in vitro
statedConditions: human, Cell viability (%)
readoutName: viability at 20 µM

INSERT INTO measurements (smilesinput, observedresult) VALUES
  ('CS(=O)(=O)CCNCc1ccc(-c2ccc3ncnc(Nc4ccc(OCc5cccc(F)c5)c(Cl)c4)c3c2)o1', '68.5%');

----------
assayRemarks: in vitro
statedConditions: human, Huh7 cell viability (%)
readoutName: viability at 0.63 µM

INSERT INTO assay_data (compound, observedresult) VALUES
  ('CCN(CC)CCNC(=O)c1c(C)[nH]c(/C=C2\C(=O)Nc3ccc(F)cc32)c1C [Sunitinib]', '99.8%');

----------
assayRemarks: in vitro
statedConditions: African green monkey, Cell viability (%), 20 μM
Reported viability at 20 µM values for a set of molecules
readoutName: viability at 20 µM

INSERT INTO measurements (smilesinput, observedresult) VALUES
  ('O[C@H]1[C@H]2c3cc4c(cc3CN3CCC(=C[C@@H]1O)[C@H]23)OCO4', '83%'),
  ('CC(=O)O[C@@H]1C[C@H]2C(C)(C)C(=O)C=C[C@]2(C)[C@H]2CC[C@@]3(C)[C@H](c4ccoc4)OC(=O)[C@H]4O[C@]43[C@@]21C', '86.5%'),
  ('O=C(CCCN1CCC2(CC1)C(=O)NCN2c1ccccc1)c1ccc(F)cc1', '97.4%'),
  ('[N-]=[N+]=CC(=O)OC[C@H](N)C(=O)O', '87.1%');

----------
Test system: Vero cells
statedConditions: African green monkey
readoutName: CC50

INSERT INTO results (smilesinput, testedsystem, observedresult) VALUES
  ('CS(=O)(=O)CCNCc1ccc(-c2ccc3ncnc(Nc4ccc(OCc5cccc(F)c5)c(Cl)c4)c3c2)o1', 'Vero cells', '> 20 µM');

----------
assayRemarks: in vitro
statedConditions: human, U-87 MG cell viability (%)
Reported viability at 3.33 µM values for a set of compounds
readoutName: viability at 3.33 µM (%)

INSERT INTO results (smilesinput, readoutname, displayunit, observedresult) VALUES
  ('CC[C@@]1([C@@H]2O[C@@H]([C@H]3O[C@@](O)(CO)[C@H](C)C[C@@H]3C)C[C@@H]2C)CC[C@H]([C@]2(C)CC[C@]3(C[C@H](O)[C@@H](C)[C@@H]([C@@H](C)[C@@H](OC)[C@H](C)C(=O)O)O3)O2)O1', 'viability at 3.33 µM', '%', 78.7),
  ('O[C@H]1[C@H]2c3cc4c(cc3CN3CCC(=C[C@@H]1O)[C@H]23)OCO4', 'viability at 3.33 µM', '%', 67.1),
  ('CC(=O)O[C@@H]1C[C@H]2C(C)(C)C(=O)C=C[C@]2(C)[C@H]2CC[C@@]3(C)[C@H](c4ccoc4)OC(=O)[C@H]4O[C@]43[C@@]21C', 'viability at 3.33 µM', '%', 79.5),
  ('O=C1NCN(c2ccccc2)C12CCN(CCCC(c1ccc(F)cc1)c1ccc(F)cc1)CC2', 'viability at 3.33 µM', '%', 102),
  ('CNc1ccc2oc(C[C@H]3O[C@@]4(CC[C@H]3C)O[C@H]([C@H](C)C(=O)c3ccc[nH]3)[C@H](C)C[C@H]4C)nc2c1C(=O)O', 'viability at 3.33 µM', '%', 66.8),
  ('O=C(CCCN1CCC2(CC1)C(=O)NCN2c1ccccc1)c1ccc(F)cc1', 'viability at 3.33 µM', '%', 101),
  ('COc1ccc2cc1Oc1ccc(cc1)C[C@H]1c3cc(c(OC)cc3CCN1C)Oc1c(OC)c(OC)cc3c1[C@H](C2)N(C)CC3', 'viability at 3.33 µM', '%', 101);

----------
assayRemarks: in vitro
statedConditions: human, Huh7 cell viability (%)
Please note: viability at 10 µM exactly at 40% is -1. Only values below 40% get 1.

INSERT INTO measurements (compound, assignedlabel) VALUES
  ('COc1ccc2cc1Oc1ccc(cc1)C[C@H]1c3cc(c(OC)cc3CCN1C)Oc1c(OC)c(OC)cc3c1[C@H](C2)N(C)CC3 [Tetrandrine]', -1),
  ('CCN(CC)CCNC(=O)c1c(C)[nH]c(/C=C2\C(=O)Nc3ccc(F)cc32)c1C [Sunitinib]', -1),
  ('CN(C)C(=O)C(CCN1CCC(O)(c2ccc(Cl)cc2)CC1)(c1ccccc1)c1ccccc1 [Loperamide]', -1),
  ('CC(C)(C)c1cc(/C=C(\C#N)C(N)=S)cc(C(C)(C)C)c1O [Tyrphostin AG 879]', -1),
  ('CC[C@@]1([C@@H]2O[C@@H]([C@H]3O[C@@](O)(CO)[C@H](C)C[C@@H]3C)C[C@@H]2C)CC[C@H]([C@]2(C)CC[C@]3(C[C@H](O)[C@@H](C)[C@@H]([C@@H](C)[C@@H](OC)[C@H](C)C(=O)O)O3)O2)O1 [Monensin]', 1),
  ('CNc1ccc2oc(C[C@H]3O[C@@]4(CC[C@H]3C)O[C@H]([C@H](C)C(=O)c3ccc[nH]3)[C@H](C)C[C@H]4C)nc2c1C(=O)O [Calcimycin]', 1);

----------
assayRemarks: in vitro
statedConditions: African green monkey, Cell viability (%), 2.2222 μM
readoutName: viability at 2.2222 µM (%)

INSERT INTO measurements (smilesinput, readoutname, observedresult) VALUES
  ('[N-]=[N+]=CC(=O)OC[C@H](N)C(=O)O', 'viability at 2.2222 µM', 89.7);

----------
assayRemarks: in vitro
statedConditions: human, Huh7 cell viability (%)
readoutName: viability at 1.111 µM

INSERT INTO assay_data (smilesinput, observedresult) VALUES
  ('CC(=O)O[C@@H]1C[C@H]2C(C)(C)C(=O)C=C[C@]2(C)[C@H]2CC[C@@]3(C)[C@H](c4ccoc4)OC(=O)[C@H]4O[C@]43[C@@]21C', '96.9%');

----------
assayRemarks: in vitro
statedConditions: human, Huh7 cell viability (%)
Reported viability at 3.333 µM values for a set of compounds
readoutName: viability at 3.333 µM (%)

INSERT INTO assay_data (compound, observedresult) VALUES
  ('CC(=O)O[C@@H]1C[C@H]2C(C)(C)C(=O)C=C[C@]2(C)[C@H]2CC[C@@]3(C)[C@H](c4ccoc4)OC(=O)[C@H]4O[C@]43[C@@]21C', 94.3),
  ('CS(=O)(=O)CCNCc1ccc(-c2ccc3ncnc(Nc4ccc(OCc5cccc(F)c5)c(Cl)c4)c3c2)o1', 105),
  ('CN(C)C(=O)C(CCN1CCC(O)(c2ccc(Cl)cc2)CC1)(c1ccccc1)c1ccccc1 [Loperamide]', 88.9);

----------
assayRemarks: in vitro
statedConditions: human, Huh7 cell viability (%)
readoutName: viability at 0.16 µM (%)

INSERT INTO measurements (smilesinput, readoutname, displayunit, observedresult) VALUES
  ('CCN(CC)CCNC(=O)c1c(C)[nH]c(/C=C2\C(=O)Nc3ccc(F)cc32)c1C', 'viability at 0.16 µM', '%', 102);

----------
Test system: SARS-CoV-2 (USA-WA1/2020)
assayRemarks: microbe, parasite or virus in culture
Format: cell-based
statedConditions: Severe acute respiratory syndrome coronavirus 2, read-out: EC50, nucleocapsid transcript expression by RT-qPCR
pEC50: −log10 of the molar value.
readoutName: pEC50

INSERT INTO results (smilesinput, readoutname, observedresult) VALUES
  ('CS(=O)(=O)CCNCc1ccc(-c2ccc3ncnc(Nc4ccc(OCc5cccc(F)c5)c(Cl)c4)c3c2)o1', 'pEC50', '> 6.70');

----------
assayRemarks: in vitro
statedConditions: human, U-87 MG cell viability (%)
readoutName: viability at 0.25 µM (%)

INSERT INTO results (smilesinput, displayunit, observedresult) VALUES
  ('CC(C)(C)c1cc(/C=C(\C#N)C(N)=S)cc(C(C)(C)C)c1O', '%', 96.7),
  ('CC(C)(C)c1cc(C=C(C#N)C#N)cc(C(C)(C)C)c1O', '%', 96.7),
  ('CCN(CC)CCNC(=O)c1c(C)[nH]c(/C=C2\C(=O)Nc3ccc(F)cc32)c1C', '%', 118);

----------
Reported viability at 0.37 µM values for a set of molecules
assayRemarks: in vitro
statedConditions: human, Huh7 cell viability (%)
readoutName: viability at 0.37 µM (%)

INSERT INTO assay_data (molecule, observedresult) VALUES
  ('O[C@H]1[C@H]2c3cc4c(cc3CN3CCC(=C[C@@H]1O)[C@H]23)OCO4 [Lycorine]', 93.2),
  ('CC(C)(C)c1cc(C=C(C#N)C#N)cc(C(C)(C)C)c1O [Tyrphostin A9]', 101),
  ('O=C1NCN(c2ccccc2)C12CCN(CCCC(c1ccc(F)cc1)c1ccc(F)cc1)CC2 [Fluspirilene]', 93.4),
  ('CO[C@@H]1[C@@H](O[C@@H]2O[C@H](C)[C@@H](O[C@H]3C[C@@](C)(O)[C@@H](OC(=O)CC(C)C)[C@H](C)O3)[C@H](N(C)C)[C@H]2O)[C@@H](CC=O)C[C@@H](C)[C@@H](O)/C=C/C=C/C[C@@H](C)OC(=O)C[C@H]1OC(C)=O [Josamycin]', 94.1),
  ('CC[C@@]1([C@@H]2O[C@@H]([C@H]3O[C@@](O)(CO)[C@H](C)C[C@@H]3C)C[C@@H]2C)CC[C@H]([C@]2(C)CC[C@]3(C[C@H](O)[C@@H](C)[C@@H]([C@@H](C)[C@@H](OC)[C@H](C)C(=O)O)O3)O2)O1 [Monensin]', 70.5),
  ('[N-]=[N+]=CC(=O)OC[C@H](N)C(=O)O [Azaserine]', 114),
  ('CC(C)(C)c1cc(/C=C(\C#N)C(N)=S)cc(C(C)(C)C)c1O [Tyrphostin AG 879]', 100);

Data credit: paper PMC10541190
